molecular target: FimH (Escherichia coli); construct: performed with UTI89 bacteria and guinea pig red blood cells; endogenous in cells; host or cells: UTI89 bacteria (whole cells, type 1 piliated); format: cell-based; conditions: concentration reducing bacterial agglutination of guinea pig red blood cells by greater than 90%; UTI89 bacteria
observedProperty: HAI titer EC>90 (µM)
The response must be a number in µM with no trailing unit.

Worked cases, answers included:
# compound, observedProperty, unitOfMeasurement, measValue
rows = [
    ("Cc1cc(-n2cc(-c3ccccc3)nn2)ccc1[C@@H](O)[C@H]1O[C@H](CO)[C@@H](O)[C@H](O)[C@@H]1O [Example 48]", "HAI titer EC>90", "µM", 0.016),
    ("Cc1cc(-c2ccc3cc[nH]c(=O)c3c2)cc(C)c1[C@@H](O)[C@H]1OC(CO)[C@@H](O)[C@H](O)C1O (single isomer, unassigned) [Example 29]", "HAI titer EC>90", "µM", 0.108),
    ("Cc1cc(-c2ccc3c(c2)C(=O)NC3)ccc1[C@@H](O)[C@H]1O[C@H](CO)[C@@H](O)[C@H](O)[C@@H]1O [Example 19]", "HAI titer EC>90", "µM", 0.016),
    ("CNC(=O)c1cccc(-c2ccc([C@H](O)[C@H]3OC(CO)[C@@H](O)[C@H](O)C3O)c(C(F)(F)F)c2)c1 (single isomer, unassigned) [Example 40]", "HAI titer EC>90", "µM", 5),
    ("Cc1cc(-c2ccc3ccnc(N)c3c2)ccc1[C@@H](O)[C@H]1O[C@H](CO)[C@@H](O)[C@H](O)[C@@H]1O [Example 3]", "HAI titer EC>90", "µM", 0.006),
    ("Cc1cc(-c2ccnc(Cl)c2)ccc1[C@@H](O)[C@H]1O[C@H](CO)[C@@H](O)[C@H](O)[C@@H]1O [Example 22]", "HAI titer EC>90", "µM", 0.027),
]

Q) Dear colleague, I am looking for the recorded HAI titer EC>90 of the following compound: Cc1cc(-c2ccc3ccn(C)c(=O)c3c2)ccc1[C@@H](O)[C@H]1O[C@H](CO)[C@@H](O)[C@H](O)[C@@H]1O [Example 11]
A) 0.011

Q) Can you share its HAI titer EC>90? I mean this compound: Cc1cc(-c2ccc3c(c2)C(=O)NCC3)ccc1[C@@H](O)[C@H]1O[C@H](CO)[C@@H](O)[C@H](O)[C@@H]1O [Example 4]
A) 0.008

Q) State the recorded HAI titer EC>90 for this entry: CNC(=O)c1cccc(-c2ccc([C@@H](N)[C@H]3O[C@H](CO)[C@@H](O)[C@H](O)[C@@H]3O)c(C)c2)c1 [Example 6]
A) 0.5

Q) Any idea what its HAI titer EC>90 is? The compound is Cc1cc(-c2ccc3c(c2)C(=O)N(C)CC3)ccc1[C@@H](O)[C@H]1O[C@H](CO)[C@@H](O)[C@H](O)[C@@H]1O [Example 12]
A) 0.008

Q) Name the recorded HAI titer EC>90 for Cc1cc(-c2cccc3c2CNC3=O)ccc1[C@@H](O)[C@H]1O[C@H](CO)[C@@H](O)[C@H](O)[C@@H]1O [Example 13] .
A) 0.083
